# System: Hepatitis C virus
# test protocol: Antiviral activity against HCV 1b infected in human HuH7 cells assessed as inhibition of viral sub-genomic replication by EG(delta-4AB)SEAP reporter protein assay
# Type: functional, organism-based, Hepacivirus hominis
# measurement setup: genotype 1b, Huh-7
measure: log10 EC50 (log10 of the value in µM)
Response schema: value (number) is log10 of EC50 in units of µM.

Past entries and their recorded results:
>>> print(df.to_string())
                                item_smiles     measure  endpoint_result
0  O=C(NC(=S)N1CCc2ccc(OCc3ccccc3)cc21)c1ccccc1  log10 EC50             0.70
1  O=C(NC(=S)N1CCc2c(OCCCCCOc3ccc(Cl)cc3)cccc21)c1ccc(Br)cc1  log10 EC50            -0.06
2  O=C(NC(=S)N1CCc2c(OCCCCCOc3ccc(Cl)cc3)cccc21)c1cccnc1  log10 EC50             0.37
3  CN(C)c1ccc(C(=O)NC(=S)N2CCc3c(OCCCCCOc4ccc(Cl)cc4)cccc32)cc1  log10 EC50             1.63
4  NC(=S)n1ccc2c(OCCCCCOc3ccc(Cl)cc3)cccc21  log10 EC50             1.39

**Q:** State its log10 EC50 on Hepatitis C virus: O=C(NC(=S)N1CCc2c(OCCCCCOc3ccc(Cl)cc3)cccc21)c1ccco1
**A:** -0.24

**Q:** Input O=C(CCc1ccccc1)NC(=S)N1CCc2c(OCCCCCOc3ccc(Cl)cc3)cccc21
**A:** 1.13

**Q:** Entry O=C(NC(=S)N1CCc2c(OCCCCCOc3ccc(Cl)cc3)cccc21)C1CCCC1 please
**A:** 1.40

Source: ChEMBL document CHEMBL1152383
